These entries and their values trace back to patent US8796463B2.

Experiment: log P by HPLC on reversed phase columns (EEC directive 79/831 Annex V.A8)
Assay type: physicochemical
Conditions: pH 2.7, 0.1% formic acid in water / acetonitrile gradient
test readout: logp

Assign logp to the following record: COc1cccc2c1OC(C(=O)Nc1nc(CON=C(c3ccccc3)c3nnnn3C)cs1)CC2 (centres unmarked)
3.64

Specify logp for Cn1nnnc1C(=NOCc1csc(NC(=O)C2CCc3cc(F)ccc3O2)n1)c1ccccc1 (centres unmarked) and stop.
3.8

Recall and state the measured logp for COc1ccc2c(c1)OC(C(=O)Nc1cccc(CON=C(c3ccccc3)c3nnnn3C)n1)CC2 (centres unmarked) .
3.96

Recall and state the measured logp for Cn1nnnc1C(=NOCc1cccc(NC(=O)C2CCc3cc(I)ccc3O2)n1)c1ccccc1 (centres unmarked) .
4.7

Please give measured logp of the following entry: Cn1nnnc1C(=NOCc1csc(NC(=O)C2COc3ccccc3O2)n1)c1ccccc1 (centres unmarked) [Example 14]
3.46

Kindly indicate its recorded logp. Item: COc1cccc2c1OC(C(=O)Nc1nc(CON=C(c3ccccc3)n3nnnc3C)cs1)CC2 (centres unmarked)
3.69

Please supply the value of reported logp for the item Cc1ccc2c(c1)OC(C(=O)Nc1cccc(CON=C(c3ccccc3)c3nnnn3C)n1)CO2 (centres unmarked)
4.03

Please supply the value of reported logp for the item Cn1nnnc1C(=NOCc1csc(NC(=O)C2CCc3cc(I)ccc3O2)n1)c1ccccc1 (centres unmarked)
4.44
